procedure-summary: Plasma Stability Assay of Example A3, human plasma
setup-conditions: % of prodrug compound remaining, 37° C., 240 min
So I've got a bunch of molecules here, and I need their Human Plasma Prodrug (%) values.
Give bare numbers, in %.

Please review the entries below; each comes with its answer.
> print(dat)
                              record.smiles                observable  result.number
1  COc1ccc([C@@]23CCC(OC(=O)c4cccc(C)c4)=C[C@@H]2N(C)CC3)cc1OC  Human Plasma Prodrug (%)             11
2  COc1ccc([C@@]23CCC(OC(=O)c4cccc(C(C)(C)C)c4)=C[C@@H]2N(C)CC3)cc1OC  Human Plasma Prodrug (%)             26
3  COc1ccc([C@@]23CCC(OC(=O)c4ccc(C(C)C)cc4)=C[C@@H]2N(C)CC3)cc1OC  Human Plasma Prodrug (%)             27

Please turn your attention to the following entry.
QUERY: Name the recorded Human Plasma Prodrug (%) for COc1ccc([C@@]23CCC(OC(=O)c4ccc(C#N)cc4)=C[C@@H]2N(C)CC3)cc1OC .
RESULT: 1

---

setup-conditions: 60 min, 5 µM
So I've got a bunch of compounds here, and I need their Human Plasma Prodrug (%) values.
One number for each entry, in %.

Please review the entries below; each comes with its answer.
> print(dat)
                                   compound  uom  result.number
1  CCCCC(CC)C(=O)OC1=C[C@@H]2N(C)CC[C@]2(c2ccc(OC)c(OC)c2)CC1 (stereo partly shown) [Compound 401]    %           96.6
2  CCCCCCCC(=O)OC1=C[C@@H]2N(C)CC[C@]2(c2ccc(OC)c(OC)c2)CC1 [Compound 395]    %            1.1
3  CCC(CC)C(=O)OC1=C[C@@H]2N(C)CC[C@]2(c2ccc(OC)c(OC)c2)CC1 [Compound 426]    %           79.2
4  CCCC(CCC)C(=O)OC1=C[C@@H]2N(C)CC[C@]2(c2ccc(OC)c(OC)c2)CC1 [Compound 427]    %           96.9
5  CCCC(C)(C)C(=O)OC1=C[C@@H]2N(C)CC[C@]2(c2ccc(OC)c(OC)c2)CC1 [Compound 429]    %           95.3

Please turn your attention to the following entry.
QUERY: Name the recorded Human Plasma Prodrug (%) for CCCCCC(C)C(=O)OC1=C[C@@H]2N(C)CC[C@]2(c2ccc(OC)c(OC)c2)CC1 (stereo partly shown) [Compound 400] .
RESULT: 5.2

---

setup-conditions: 10 min, 5 µM
So I've got a bunch of compounds here, and I need their Rat Plasma Prodrug (%) values.
One number for each entry, in %.

> print(dat)
                                   compound  result.number
1  CCCC(CC)CC(=O)OC1=C[C@@H]2N(C)CC[C@]2(c2ccc(OC)c(OC)c2)CC1 (some centres unmarked)            2.8
2  CCC(C)(C)C(=O)OC1=C[C@@H]2N(C)CC[C@]2(c2ccc(OC)c(OC)c2)CC1           90.3
3  CCC(CC)C(=O)OC1=C[C@@H]2N(C)CC[C@]2(c2ccc(OC)c(OC)c2)CC1           70.2
4  COCCCCC(=O)OC1=C[C@@H]2N(C)CC[C@]2(c2ccc(OC)c(OC)c2)CC1            0.3
5  COc1ccc([C@@]23CCC(OC(=O)c4ccc(C(C)C)cc4)=C[C@@H]2N(C)CC3)cc1OC            5.0

Record Rat Plasma Prodrug (%) for all entries; do not skip any.
1. CCCCCC(C)C(=O)OC1=C[C@@H]2N(C)CC[C@]2(c2ccc(OC)c(OC)c2)CC1 (some centres unmarked)
2. CCCC(C)(C)C(=O)OC1=C[C@@H]2N(C)CC[C@]2(c2ccc(OC)c(OC)c2)CC1
3. COc1ccc([C@@]23CCC(OC(=O)CCC(C)C)=C[C@@H]2N(C)CC3)cc1OC

RESULT:
[12.6, 90.4, 0.0]

Record Rat Plasma Prodrug (%) for all entries; do not skip any.
1. COc1ccc([C@@]23CCC(OC(=O)CCN)=C[C@@H]2N(C)CC3)cc1OC
2. COCCOCCC(=O)OC1=C[C@@H]2N(C)CC[C@]2(c2ccc(OC)c(OC)c2)CC1
3. COc1ccc([C@@]23CCC(OC(=O)c4cccc(C)c4C)=C[C@@H]2N(C)CC3)cc1OC
4. CCCC(C)C(=O)OC1=C[C@@H]2N(C)CC[C@]2(c2ccc(OC)c(OC)c2)CC1 (some centres unmarked)

RESULT:
10.5
0.1
81.0
3.5

QUERY: Name the recorded Rat Plasma Prodrug (%) for CCCCCCCC(=O)OC1=C[C@@H]2N(C)CC[C@]2(c2ccc(OC)c(OC)c2)CC1 .
RESULT: 0.3
